test: NCI Yeast Anticancer Drug Screen. Data for the mlh1 rad18 strain (AID 175); details: S. cerevisiae mlh1 rad18 strain growth inhibition; at 50.0 µM; hits give high values
The panel holds about 79,000 compounds, 15% with a hit somewhere; the sample as a whole holds those more often. Active and inactive are the calls of the source. Rule as the data show it: active = growth inhibition above about 70%; inactive = the rest.

# COMPOUND, growth inhibition
measured = [
    ("CC1=NNC(=O)C1CCS (configuration not stated)", "-7.4% (inactive)"),
    ("COc1cc(NCCCCCCNCC(C)C)c2nccc(C)c2c1", "21.6% (inactive)"),
    ("CSC(SC)C(OC(C)=O)C(OC(C)=O)C(OC(C)=O)C(COC(C)=O)OC(C)=O (configuration not stated)", "3.85% (inactive)"),
    ("Cc1cc(=O)n2c3c(cccc13)CCC2", "11.9% (inactive)"),
    ("CCCCCCCCCCCC(=O)Nc1cc(Cl)c(OC)cc1OC", "48.4% (inactive)"),
    ("CCC(O)CN(C)C (configuration not stated)", "3.45% (inactive)"),
    ("CC(=O)CCc1ccc(Cl)cc1", "-4.4% (inactive)"),
    ("CCC(Oc1ccc(OC)c2c1C(=O)CCC2)C(=O)O (configuration not stated)", "7.55% (inactive)"),
    ("O=C(N(CCc1ccc(O)cc1)Cc1ccc2c(c1)OCO2)C(F)(F)F", "98.6% (active)"),
    ("c1ccc(Sc2cccc3c(-c4ccccc4)c4cccc5c4c(c23)C[S+]5c2ccccc2)cc1 (configuration not stated)", "98.8% (active)"),
    ("Cc1ccc(N)c(C#N)c1", "4.65% (inactive)"),
    ("CC/C(=N/N(C)C)C(=O)O", "-16.3% (inactive)"),
    ("CC(=O)OCC1OCOC2C(COC(C)=O)OCOC12 (configuration not stated)", "-8.5% (inactive)"),
    ("Cc1ccc(N(C(=O)CC(=O)N/N=C/c2ccccc2O)C(=O)c2ccccc2)cc1", "-10.8% (inactive)"),
    ("CCC(C(=O)OC)C1CCCCC1 (configuration not stated)", "22.4% (inactive)"),
    ("CCC(=O)C(C)C(=O)N(CC(C)C)CC(C)C (configuration not stated)", "-19.8% (inactive)"),
    ("COC(=O)c1c(C)cc(OC(=O)c2c(C)cc(OC)c(C)c2OC)c(C)c1O", "4.65% (inactive)"),
    ("Fc1ccc2nncc(SCc3ccc(Cl)c(Cl)c3)c2c1", "-2.05% (inactive)"),
    ("Clc1ccc2c(NCCCCN=Cc3ccccc3)ccnc2c1", "-12.7% (inactive)"),
    ("Cc1cncc(C)c1", "8.5% (inactive)"),
    ("C#CC(C)(C)OC(=O)Nc1cccc(Cl)c1", "10.7% (inactive)"),
    ("O=C1Nc2ccc3c4c(ccc1c24)CC3", "16.8% (inactive)"),
    ("CNC(=O)Nc1ccc(OC)cc1OC", "-18.6% (inactive)"),
    ("[N-]=[N+]=NC[C@H]1OCO[C@H](CN=[N+]=[N-])[C@@H](OCCOCCCl)[C@@H]1OCCOCCCl", "-15.8% (inactive)"),
    ("Cc1cc2c(cc1C)[n+](=O)c(C(=O)C/C(=N/OCCCc1ccccc1)C(=O)Nc1cc(Cl)ccc1Cl)c(C)n2[O-]", "-10.3% (inactive)"),
    ("Nc1ccccc1Sc1ccc(C(=O)O)cc1[N+](=O)[O-]", "-6.5% (inactive)"),
    ("O=[N+]([O-])c1ccc(/C(CBr)=N/N2CCCCC2)cc1", "-13.6% (inactive)"),
    ("CC1(C)CCC2(CC1)CC[N+](C)(CCC[N+](C)(C)C)CC2", "-11.2% (inactive)"),
    ("CCC(C)(C)c1ccc(OCCO)cc1", "-23.4% (inactive)"),
    ("COc1cccc(NC(=O)CC(=O)Nc2cccc(OC)c2)c1", "-18.7% (inactive)"),
    ("O=[N+]([O-])c1ccc(C2=NCC=CCO2)cc1", "12.8% (inactive)"),
    ("Cc1cc(C)c(C#N)c(N)n1", "-14.9% (inactive)"),
    ("c1ccc(-c2cc3nncc(-c4ccccc4)n3n2)cc1", "3.55% (inactive)"),
    ("CC(=O)NCCc1ccc(OC(C)=O)c(OC(C)=O)c1", "16.1% (inactive)"),
    ("Nc1c(F)c(F)c(C(=O)O)c(F)c1F", "-29.4% (inactive)"),
    ("O=C(O)C(=O)O.[Co+3].[NH-]C(Cc1ccccc1)C(=O)[O-].[NH-]CCN(CC[NH-])CC[NH-] (configuration not stated)", "25.6% (inactive)"),
    ("CCCCCCCCCCCCCCCCOc1ccc(/C=N/Nc2ccccc2)cc1OC", "-13.6% (inactive)"),
    ("O=C(O)c1c[nH]c2cc(O)ccc2c1=O", "-2.7% (inactive)"),
    ("Nc1ccc(S(=O)(=O)CCO)cc1", "3.6% (inactive)"),
    ("CCCCCCCC[N+](C)(C)C", "-39.8% (inactive)"),
    ("C/C(=N\\NC(=S)N1CCC(C)CC1)c1nccnc1C", "17.7% (inactive)"),
    ("CN1CCc2ccccc2/C(=C(/O)c2ccccc2)C1=O", "10.1% (inactive)"),
    ("O=[N+]([O-])c1ccc(CC(Cl)c2ccccn2)cc1 (configuration not stated)", "42.2% (inactive)"),
    ("C1CCC(NCSC2=NCCS2)CC1", "1.9% (inactive)"),
    ("CCCCCCCCOC(=O)C1(O)CCCCC1", "36.1% (inactive)"),
    ("CCOC(=O)C(CSC(=O)c1ccccc1)NC(=O)OCc1ccccc1 (configuration not stated)", "20.1% (inactive)"),
    ("COC1OC(C(C)Br)C2OC(C)(C)OC12 (configuration not stated)", "27.4% (inactive)"),
    ("COC(=O)/C(C#N)=C/NC(=S)Nc1ccccc1", "-33.2% (inactive)"),
    ("COc1ccc(OC(=O)Nc2ccc(OC)cc2Cl)cc1", "7.7% (inactive)"),
    ("CC(N)(CCBr)C(=O)O (configuration not stated)", "-17.4% (inactive)"),
    ("Nc1nnc(/C=C/c2ccc(Cl)cc2)o1", "-11.3% (inactive)"),
    ("CCCCC1(CCO)C(=O)N=C(N)NC1=O (configuration not stated)", "-15.8% (inactive)"),
]

Origin of values: PubChem BioAssay (NCI)
